system: HCV 1b genotype; assay: HCV Replicon assay; assay type: cell-based; conditions: HCV 1b genotype replicon; read-out: Range (EC50 ranges against HCV 1b)
pEC50: −log10 of the molar value.

compound	pEC50
COC(=O)NC(C(=O)N1[C@@H]2C[C@@H]2C[C@H]1c1nc(-c2ccc(-c3ccc(-c4c[nH]c([C@@H]5C[C@H]6C[C@H]6N5C(=O)C(NC(=O)OC)[C@@H]5C[C@@H]6C[C@@H]6C5)n4)cc3)cc2)c[nH]1)[C@@H]1C[C@@H]2C[C@@H]2C1 (stereo partly shown) [QC3.2]	10.00 to 11.30
COC(=O)NC(C(=O)N1[C@@H](C)CC[C@H]1c1nc(-c2ccc(-c3ccc(-c4c[nH]c([C@@H]5CC[C@H](C)N5C(=O)C(NC(=O)OC)C5CCC6(CC6)OC5)n4)cc3)cc2)c[nH]1)C1CCC2(CC2)OC1 (stereo partly shown) [Example 1.2]	10.00 to 11.30
COC(=O)NC(C(=O)N1[C@@H]2C[C@@H]2C[C@H]1c1nc(-c2ccc(-c3ccc(-c4c[nH]c([C@@H]5C[C@H]6C[C@H]6N5C(=O)C(NC(=O)OC)[C@@H]5C[C@@H]6C[C@@H]6C5)n4)cc3)cc2)c[nH]1)[C@@H]1C[C@@H]2C[C@@H]2C1 (stereo partly shown) [QC3.3]	9.05 to 10.00
COC(=O)NC(C(=O)N1[C@@H](C)CC[C@H]1c1ncc(-c2ccc(-c3ccc(-c4cnc([C@@H]5CC[C@H](C)N5C(=O)C(NC(=O)OC)C5CCOC6(CCC6)C5)[nH]4)cc3)cc2)[nH]1)C1CCOC2(CCC2)C1 (single isomer, unassigned) [Example 2.2]	6.85 to 9.05
COC(=O)NC(C(=O)N1[C@@H]2C[C@@H]2C[C@H]1c1nc(-c2ccc(-c3ccc(-c4c[nH]c([C@@H]5C[C@H]6C[C@H]6N5C(=O)C(NC(=O)OC)[C@H]5C[C@@H]6[C@H](C5)C6(F)F)n4)cc3)cc2)c[nH]1)[C@H]1C[C@@H]2[C@H](C1)C2(F)F (stereo partly shown) [QC2.2]	10.00 to 11.30
COC(=O)NC(C(=O)N1[C@@H](C)CC[C@H]1c1ncc(-c2ccc(-c3ccc(-c4cnc([C@@H]5CC[C@H](C)N5C(=O)C(NC(=O)OC)C5CCOC6(CCCC6)C5)[nH]4)cc3)cc2)[nH]1)C1CCOC2(CCCC2)C1 (single isomer, unassigned) [Example 3.2]	6.85 to 9.05
COC(=O)NC(C(=O)N1[C@@H](C)CC[C@H]1c1ncc(-c2ccc(-c3ccc(-c4cnc([C@@H]5CC[C@H](C)N5C(=O)C(NC(=O)OC)C5CCOC6(CCCC6)C5)[nH]4)cc3)cc2)[nH]1)C1CCOC2(CCCC2)C1 (single isomer, unassigned) [Example 3.1]	6.85 to 9.05

----------
system: HCV 1b genotype; assay: HCV Replicon assay; format: cell-based; conditions: HCV 1b genotype replicon; read-out: Range (EC50 ranges against HCV 1b)
Collected EC50 values appear next to each entry.

compound	EC50
COC(=O)NC(C(=O)N1[C@@H](C)CC[C@H]1c1ncc(-c2ccc(-c3ccc(-c4cnc([C@@H]5CC[C@H](C)N5C(=O)C(NC(=O)OC)C5CCOC6(CCC6)C5)[nH]4)cc3)cc2)[nH]1)C1CCOC2(CCC2)C1 (single isomer, unassigned) [Example 2.1]	900 to 140000 pM
COC(=O)NC(C(=O)N1[C@@H]2C[C@@H]2C[C@H]1c1nc(-c2ccc(-c3ccc(-c4c[nH]c([C@@H]5C[C@H]6C[C@H]6N5C(=O)C(NC(=O)OC)[C@H]5C[C@@H]6[C@H](C5)C6(F)F)n4)cc3)cc2)c[nH]1)[C@H]1C[C@@H]2[C@H](C1)C2(F)F (stereo partly shown) [QC2.3]	900 to 140000 pM
COC(=O)N[C@@H](C(=O)N1C2C[C@@H]2C[C@H]1c1nc(-c2ccc(-c3ccc(-c4c[nH]c([C@@H]5C[C@H]6CC6N5C(=O)[C@H](NC(=O)OC)C5[C@H]6COC[C@@H]56)n4)cc3)cc2)c[nH]1)C1[C@H]2COC[C@@H]12 (stereo partly shown) [QC4.1]	5.01 to 100 pM
COC(=O)N[C@@H](C(=O)N1C2C[C@@H]2C[C@H]1c1nc(-c2ccc(-c3ccc(-c4c[nH]c([C@@H]5C[C@H]6CC6N5C(=O)[C@H](NC(=O)OC)C5[C@H]6COC[C@@H]56)n4)cc3)cc2)c[nH]1)C1[C@H]2COC[C@@H]12 (stereo partly shown) [QC4.2]	100 to 900 pM
